# System Under Test: human glucagon receptor (GCGR) (Homo sapiens (Human), UniProt P47871)
# Sequence (P47871 26-477): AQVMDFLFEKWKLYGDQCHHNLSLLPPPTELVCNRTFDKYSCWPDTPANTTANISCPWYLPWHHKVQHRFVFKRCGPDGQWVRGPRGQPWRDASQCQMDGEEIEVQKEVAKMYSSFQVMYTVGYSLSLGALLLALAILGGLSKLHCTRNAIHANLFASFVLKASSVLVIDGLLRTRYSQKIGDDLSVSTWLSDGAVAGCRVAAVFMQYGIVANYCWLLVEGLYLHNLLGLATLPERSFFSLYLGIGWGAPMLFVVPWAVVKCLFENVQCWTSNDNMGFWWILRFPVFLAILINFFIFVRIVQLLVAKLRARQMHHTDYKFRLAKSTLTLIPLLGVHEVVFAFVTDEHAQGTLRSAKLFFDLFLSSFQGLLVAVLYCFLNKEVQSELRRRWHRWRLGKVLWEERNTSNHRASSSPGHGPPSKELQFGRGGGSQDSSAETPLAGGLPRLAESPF
# Test: Inhibition of 125I-glucagon binding to membranes from HEK293 cells expressing the human glucagon receptor
# Run Parameters: membranes of hGluc-1 HEK cells, 125I-glucagon 0.3 nM, 2 hours room temperature; IC50 converted to Ki; average if tested more than once
pKi: −log10 of the molar value.
Parameter Measured: pKi

Study these solved cases before continuing.
test_smiles=Cc1cc(Cl)ccc1-c1ccc(NCc2ccc(C(F)(F)F)cc2-c2ccc(C(=O)NCCC(=O)O)nc2)cc1 measured_number=7.60
test_smiles=O=C(O)CCNC(=O)c1ccc(-c2cc(C3=CCCCC3)ccc2CNc2ccc(-c3ccc(F)cc3)cc2)cn1 measured_number=7.74
test_smiles=O=C(O)CCNC(=O)c1ccc(-c2cc(F)c(F)cc2CNc2ccc(-c3ccc(Cl)cc3)c(Cl)c2)cn1 measured_number=7.64

a. Cc1cc(Cl)ccc1-c1ccc(NCc2ccc(Cl)cc2-c2ccc(C(=O)NCCC(=O)O)nc2)cc1
b. Cc1ccc(C(=O)Nc2ccc(-c3ccc(Cl)cc3)cc2)c(-c2ccc(C(=O)NCCC(=O)O)nc2)c1
c. O=C(O)CCNC(=O)c1ccc(-c2cc(Cl)ccc2CNc2ccc(-c3cccc(OC(F)(F)F)c3)cc2)cn1
Rank by pKi (largest to smallest). Put the labels in the order asked and list them.
a, b, c
(a: 7.73, b: 7.44, c: 7.07)

Cited source for all entries: patent US8748624B2
